Below: a set of entries, each annotated with reported infectivity % under 10 ug/mL VHH treatment.
molecular target: SARS-CoV-2 spike protein on pseudotyped lentivirus (Wuhan Reference Pseudovirus) (SARS-CoV-2, UniProt P0DTC2 14-1273); test: cell-based or functional assay
Report only the number, with the unit % understood.

Examples from the recorded data:
- binder: "PP819 MBP-R5A-C5-H6 (VHH, Form: Monomer) VHH: QVQLVESGGGLVQPGGSLRLSCAASGDIFSINALHWFRQAPGKQREEVAAITSGGSTGYADSVKGRFTISRDNAKNTVYLQMNSLKPEDTAVYYCAAQQARGGLDSDYWGQGTQVTVSS"
  unit_name: "%"
  observed: 54.1
- binder: "PP1154 MBP-5HVZ-PAPA-R5d-G1-H6 (VHH, Form: Dimer) VHH: QVQLVESGGGLVQPGGSLRLSCAASGSIFGINDVHWFRQAPGKEREFVATITNGLSARYKDSVKGRFTISRDNAKNTVYLQMNSLKPEDTAVYYCAAQVYITTYELYDYWGQGTQVTVSS"
  unit_name: "%"
  observed: 53.2

Q) Item PP911 MBP-5HVZ-S2b-F7-H6 (VHH, Form: Dimer) VHH: QVQLVESGGGLVQPGGSLRLSCAASGSTLSNNAMHWFRQAPGKAREFVAAIGSSDSTDYKDSVKGRFTISRDNAKNTVYLQMNSLKPEDTAVYYCTALLDSGPGEYNYWGQGTQVTVSS : provide infectivity % under 10 ug/mL VHH treatment
A) 74.9
